Target desc: T1, human GIP receptor (human, UniProt P48546 22-466)
T1 sequence (looked up): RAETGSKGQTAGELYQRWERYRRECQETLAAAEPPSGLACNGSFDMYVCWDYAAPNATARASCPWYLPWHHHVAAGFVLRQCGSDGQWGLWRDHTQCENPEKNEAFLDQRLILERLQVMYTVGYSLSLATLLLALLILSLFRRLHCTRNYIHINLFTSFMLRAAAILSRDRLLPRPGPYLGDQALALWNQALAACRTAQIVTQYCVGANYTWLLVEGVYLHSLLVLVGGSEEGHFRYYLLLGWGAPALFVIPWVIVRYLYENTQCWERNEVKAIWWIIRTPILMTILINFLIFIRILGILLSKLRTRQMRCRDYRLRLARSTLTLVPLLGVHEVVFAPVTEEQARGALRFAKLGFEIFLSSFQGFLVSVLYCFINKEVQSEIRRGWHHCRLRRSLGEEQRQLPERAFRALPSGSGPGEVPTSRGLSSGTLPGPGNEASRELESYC
Method summary: cell-based or functional assay
# note: exactly 90% is not below, so it is Not met; use Met for Emax, cAMP strictly under it

Completed entries (count: 2):
YXEGTXTSDVSIXLDXKAQXEFIKXLIEGGPSSGAPPPS (Aib2, αMeF(2F)6, αMeL13, Orn16, Aib20, αMeY25, K17 and K24: K(AEEA2-(γ-Glu)-CO-(CH2)12-CO2H), C-terminal NH2) [Example 114] | Not met
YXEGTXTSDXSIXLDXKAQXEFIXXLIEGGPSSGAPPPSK (Aib2, αMeF(2F)6, 4Pal10, αMeL13, Orn16, Aib20, D-Glu24, αMeY25, K17 and K40: K(AEEA2-(γ-Glu)-CO-(CH2)12-CO2H), C-terminal NH2) [Example 19] | Not met

Would you kindly look at the next entry?
IN: For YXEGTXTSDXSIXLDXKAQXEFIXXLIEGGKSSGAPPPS (Aib2, αMeF(2F)6, αMeF(2F)10, αMeL13, Orn16, Aib20, D-Glu24, αMeY25, K17 and K31: K(AEEA2-(γ-Glu)-CO-(CH2)12-CO2H), C-terminal NH2) [Example 87] , is the recorded Emax, cAMP below the cut-off of 90%?
OUT: Met
